Hey, just so you know, these numbers are from PubChem BioAssay AID2060612.

- Tested on: 565232-114-T-J1-PDC complex spheroid viability
- Procedure Details: Anticancer human tumor 565232-114-T-J1-PDC patient-derived bladder carcinoma cell line growth inhibition [CLK]; active = viability on the fitted dose curve at most 10% of control; inactive = the rest
- Reported Conditions: second compound 3.16 µM; first compound 0.0316 µM
Select the correct class. Options are active, inactive and nothing else.

Recorded test call requested for COc1cccc2c1C(=O)c1c(O)c3c(c(O)c1C2=O)CC(O)(C(=O)CO)CC3OC1CC(N)C(O)C(C)O1 (stereo not given) + CNC(=O)c1ccc(Nc2nc(OC3CCCC3)c3c(-c4ccc5nc(C)oc5c4)c[nH]c3n2)c(OC)c1
inactive

Recorded test call requested for Nc1ccccc1NC(=O)c1ccc(CNC(=O)OCc2cccnc2)cc1 + CN1CCN(c2cc(C(=O)Nc3cc4cc(-c5cnn(C)c5)ccc4cn3)ccn2)CC1
active

Recorded test call requested for COC1C=CCC(C)C(C)S(=O)(=O)NC(=O)c2ccc3c(c2)N(CC2CCC21)CC1(CCCc2cc(Cl)ccc21)CO3 (stereo not given) + CNC(=O)c1ccc(Nc2nc(OC3CCCC3)c3c(-c4ccc5nc(C)oc5c4)c[nH]c3n2)c(OC)c1
inactive

Recorded test call requested for O=C(c1cc(Cc2n[nH]c(=O)c3ccccc23)ccc1F)N1CCN(C(=O)C2CC2)CC1 + CNC(=O)c1ccc(Nc2nc(OC3CCCC3)c3c(-c4ccc5nc(C)oc5c4)c[nH]c3n2)c(OC)c1
inactive

Recorded test call requested for Nc1ccn(C2OC(CO)C(O)C2(F)F)c(=O)n1 (stereo not given) + CN1CCN(c2cc(C(=O)Nc3cc4cc(-c5cnn(C)c5)ccc4cn3)ccn2)CC1
active

---

Can you tell me pIC50 for the items I'm about to list?
- System: 565232-114-T-J1-PDC complex spheroid viability
- Procedure Details: Anticancer human tumor 565232-114-T-J1-PDC cell line growth inhibition [CLK];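 note: spheroids exposed to compounds for 7 days before readout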
- Reported Conditions: curve of first compound; second compound 0.1 µM
# pIC50 is unitless: minus log10 of the molar concentration; print number only

Look up and report measured pIC50 for this entry: CC1COCCN1c1cc(C2(S(C)(=N)=O)CC2)nc(-c2ccnc3[nH]ccc23)n1 (stereo unspecified) + CNC(=O)c1ccc(Nc2nc(OC3CCCC3)c3c(-c4ccc5nc(C)oc5c4)c[nH]c3n2)c(OC)c1
6.65

Look up and report measured pIC50 for this entry: CCc1c2c(nc3ccc(O)cc13)-c1cc3c(c(=O)n1C2)COC(=O)[C@]3(O)CC + CN1CCN(c2cc(C(=O)Nc3cc4cc(-c5cnn(C)c5)ccc4cn3)ccn2)CC1
7.86

Look up and report measured pIC50 for this entry: NC(=O)C(=Cn1cnc(-c2cc(C(F)(F)F)cc(C(F)(F)F)c2)n1)c1cncnc1 + CN1CCN(c2cc(C(=O)Nc3cc4cc(-c5cnn(C)c5)ccc4cn3)ccn2)CC1
6.72

Look up and report measured pIC50 for this entry: Nc1ccn(C2OC(CO)C(O)C2(F)F)c(=O)n1 (stereo unspecified) + CN1CCN(c2cc(C(=O)Nc3cc4cc(-c5cnn(C)c5)ccc4cn3)ccn2)CC1
6.62

---

- Test system: 565232-114-T-J1-PDC complex spheroid viability
- Procedure Details: Anticancer human tumor 565232-114-T-J1-PDC cell line growth inhibition [CLK];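 note: spheroids exposed to compounds for 7 days before readout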;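 for viability, T/C: 100% = DMSO vehicle wells with luminescence normalized to vehicle control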
- Reported Conditions: compound 10 µM; stronger effect = lower value
Outcome Measure: viability, T/C

Name the value of viability, T/C reported for `CNC(=O)c1ccc(Nc2nc(OC3CCCC3)c3c(-c4ccc5nc(C)oc5c4)c[nH]c3n2)c(OC)c1` when tested on 565232-114-T-J1-PDC complex spheroid viability.
15.4% [middle of 12 runs]

Name the value of viability, T/C reported for `CCCS(=O)(=O)Nc1ccc(F)c(C(=O)c2c[nH]c3ncc(-c4ccc(Cl)cc4)cc23)c1F` when tested on 565232-114-T-J1-PDC complex spheroid viability.
21.5%

Name the value of viability, T/C reported for `CN1CCN(c2cc(C(=O)Nc3cc4cc(-c5cnn(C)c5)ccc4cn3)ccn2)CC1` when tested on 565232-114-T-J1-PDC complex spheroid viability.
0.47% [middle of 9 runs]

Name the value of viability, T/C reported for COC1C=CCC(C)C(C)S(=O)(=O)NC(=O)c2ccc3c(c2)N(CC2CCC21)CC1(CCCc2cc(Cl)ccc21)CO3 (configuration not stated) when tested on 565232-114-T-J1-PDC complex spheroid viability.
3.28%

Name the value of viability, T/C reported for CC(Nc1ccc2c(c1)OCCn1cc(N3C(=O)OCC3C(F)F)nc1-2)C(N)=O (configuration not stated) when tested on 565232-114-T-J1-PDC complex spheroid viability.
102%

Name the value of viability, T/C reported for C=CC(=O)N1CCN(c2nc(=O)n(-c3c(C)ccnc3C(C)C)c3nc(-c4c(O)cccc4F)c(F)cc23)C(C)C1 (configuration not stated) when tested on 565232-114-T-J1-PDC complex spheroid viability.
111%

Name the value of viability, T/C reported for C=C(F)C(=O)N1CCN(c2nc(OCC3CCCN3C)nc3c2CCN(c2cccc4cccc(Cl)c24)C3)CC1CC#N (configuration not stated) when tested on 565232-114-T-J1-PDC complex spheroid viability.
0.24%
